# SYSTEM: human recombinant sGC enzyme (Homo sapiens (Human), UniProt Q02108+Q02153)
# EXPERIMENT: Size Exclusion Chromatography (SEC) competition binding assay using [3H] Ex-77B as the radioligand
# RUN CONDITIONS: [3H] Ex-77B radioligand, 24 hours at 37° C.
pKi: −log10 of the molar value.
METRIC NAME: pKi

Past entries and their recorded results:
COMPOUND: C[C@@]1(c2ccc(CCC(=O)O)cc2)C(=O)Nc2nc(-c3nn(CC4CCCCC4)c4cc(Cl)ccc34)nc(N)c21 [Example 44B]
pKi: 9.91
--
COMPOUND: CC(C)(Cc1csc(C2(C)C(=O)Nc3nc(-c4nn(CCC(F)(F)F)c5ncc(F)cc45)nc(N)c32)n1)C(=O)O (stereo not shown) [Example 85A]
pKi: 8.82
--
COMPOUND: CC(C)(Cc1csc([C@]2(C)C(=O)Nc3nc(-c4nn(Cc5c(F)cccc5F)c5cc(Cl)ccc45)nc(N)c32)n1)C(=O)O [Example 183A]
pKi: 10.12

1. CC(C)(Cc1csc([C@]2(C)C(=O)Nc3nc(-c4nn(CCCC(F)(F)F)c5nc(Cl)ccc45)nc(N)c32)n1)C(=O)O [Example 89B]
2. CC1(N2CCC(CCC(=O)O)C2)C(=O)Nc2nc(-c3nn(Cc4ccccc4F)c4cc(Cl)ccc34)nc(N)c21 (single isomer, unassigned) [Example 261C]
Q: Min pKi? 1 | 2 State the label of the item chosen.
Result: 1

* * *

# SYSTEM: sGC α1/β1 heterodimer (Homo sapiens (Human), UniProt Q02108+Q02153)
# EXPERIMENT: Cell-based sGC functional assay (cyclic GMP assay for sGC activator: CASA assay)
# RUN CONDITIONS: CHO-K1, activity expressed as percentage of compound A (standard); CHO-K1/sGC cells; read-out: % Activation
# Procedure: Cell-Based sGC Functional Assay (Cyclic GMP Assay for sGC Activator: CASA Assay) Soluble guanylate cyclase (sGC) is a heme-containing enzyme that converts GTP to secondary messenger cGMP. […] A CHO-K1 cell line stably expressing the sGC α1/β1 heterodimer was generated using a standard transfection protocol. […] The level of intracellular cGMP was determined using an HTRF-based assay kit (CisBio, 62GM2PEC), which detects the displacement of a fluorescence labeled cGMP from its specific antibody. […]
METRIC NAME: Emax (%)

COMPOUND: CC1(c2ccc(CCCC(=O)O)cc2)C(=O)Nc2nc(-c3nn(CCC(F)(F)C(F)(F)F)c4ncccc34)nc(N)c21 (stereo not drawn) [Example 116A]
METRIC NAME: Emax
QUANTITATIVE RESULT: 78

COMPOUND: CC(C)(Cc1coc(C2(C)C(=O)Nc3nc(-c4nn(Cc5cccc(F)c5F)c5cc(F)ccc45)nc(N)c32)n1)C(=O)O (stereo not drawn) [Example 200A]
METRIC NAME: Emax
QUANTITATIVE RESULT: 120

COMPOUND: Cc1ccc(F)c(Cn2nc(-c3nc(N)c4c(n3)NC(=O)C4(C)c3nc(CC(C)(C)C(=O)O)co3)c3ccc(Cl)cc32)c1 (stereo not drawn) [Example 213A]
METRIC NAME: Emax
QUANTITATIVE RESULT: 94.9

* * *

# SYSTEM: sGC α1/β1 heterodimer (Homo sapiens (Human), UniProt Q02108+Q02153)
# EXPERIMENT: Cell-based sGC functional assay (cyclic GMP assay for sGC activator: CASA assay)
# RUN CONDITIONS: inflection point, 4P fit; CHO-K1/sGC cells; read-out: IP
pEC50: −log10 of the molar value.
METRIC NAME: pEC50

I. CC1(c2cn(C(C)(C)C(=O)O)nn2)C(=O)Nc2nc(-c3nn(Cc4ccccc4F)c4cc(Cl)ccc34)nc(N)c21 (single isomer, unassigned) [Example 141A]
II. CC1(c2ccc(C(=O)O)cn2)C(=O)Nc2nc(-c3nn(Cc4ccccc4F)c4cc(Cl)ccc34)nc(N)c21 (stereo not drawn) [Example 254A]
III. CC1(c2ccc(CC(=O)O)cc2)C(=O)Nc2nc(-c3nn(CCC(F)(F)C(F)(F)F)c4ncccc34)nc(N)c21 (stereo not drawn) [Example 118A]
Q: Put the above molecules in order of rising pEC50, beginning with the smallest. Please reply with the labels ordered as requested. Many thanks.
Result: III, II, I
